Data origin: paper PMC12651750

# System: Jurkat, human leukemic T cell line
# Assay: Anti-proliferation MTT / CCK-8 assay
# Format: cell-based
# Experimental Conditions: Homo sapiens, Jurkat, 72 h; read-out: IC50 against Jurkat cells
Measured Attribute: pIC50
Entry type: numeric. Quantity: pIC50, the -log10 of concentration in molar units.

Cc1cccc2c(=O)c3c(NCCCCCC(=O)NO)ccc([N+](=O)[O-])c3[nH]c12 [NBU-2]	6.07

Moving on to the next compound.
Field pIC50 (entry Nc1cc(F)ccc1NC(=O)c1ccc(CNC(=O)/C=C/c2cccnc2)cc1 [Chidamide, reference compound] ) reads 5.65

====

# System: U937, human histiocytic lymphoma
# Assay: Anti-proliferation MTT / CCK-8 assay
# Format: cell-based
# Experimental Conditions: U-937, 72 h, read-out: IC50 against U937
Measured Attribute: IC50

Field IC50 (entry Cc1cccc2c(=O)c3c(NCCCCCC(=O)NO)ccc([N+](=O)[O-])c3[nH]c12 [NBU-2] ) reads < 5 µM

====

# System: 4T1, mouse breast cancer cell line
# Assay: Anti-proliferation MTT / CCK-8 assay
# Assay type: cell-based
# Experimental Conditions: 72 h
pIC50: −log10 of the molar value.
Measured Attribute: pIC50

Cc1cccc2c(=O)c3c(NCCCCCC(=O)NO)ccc([N+](=O)[O-])c3[nH]c12	< 7.30

Moving on to the next molecule.
Kindly note: 4T1, mouse breast cancer cell line, Nc1cc(F)ccc1NC(=O)c1ccc(CNC(=O)/C=C/c2cccnc2)cc1 [Chidamide, reference compound] , pIC50 value reported: < 7.30

====

# Test system: HUVEC, human umbilical vein endothelial cells
# Assay: Toxicity on normal cells (MTT / CCK-8 assay)
# Format: cell-based
# Experimental Conditions: read-out: IC50 proliferation HUVEC (normal cells), heading: IC50 proliferation HUVEC, 72 h, mean ± SEM of three independent assays
Measured Attribute: IC50 (µM)
Record the value in µM, omitting the unit from your answer.

Field IC50 (entry Cc1cccc2c(=O)c3c(NCCCCCC(=O)NO)ccc([N+](=O)[O-])c3[nH]c12 [NBU-2] ) reads 35.6
